Data origin: ChEMBL document CHEMBL1201862

test system: SK-MEL-28; experiment: NCI tumour cell line growth inhibition, 48 h
Active and inactive are the calls of the source. Cut-off read from the data, not from the text of the source: active = GI50 up to about 1.1 µM and inactive = higher.
Please go through the items and note down their GI50.

May I ask what GI50 has been recorded for `CC[C@@H]1ON(C)[C@H]2CN(C)C(=O)[C@@H]12` ?
> 100 µM (inactive)

Repeat with `CCOC(=O)c1cc(-c2ccc(OC)c(OC)c2)cn1C`
> 10 µM (inactive)

Repeat with N#CC(c1ccc(O)cc1)N1CCN(C(C#N)c2ccc(O)cc2)CC1 (stereo not given)
67.3 µM (inactive)

Repeat with `N/C(=N\O)N/N=C/c1ccc2c(c1)OCCO2`
21.4 µM (inactive)

Repeat with `N/N=c1\c2ccccc2c2ccc3c4ccccc4/c(=N\N)c3c12`
> 100 µM (inactive)

Repeat with `CC(=O)N(C)c1ccc2ncccc2c1[N+](=O)[O-]`
> 100 µM (inactive)

Repeat with `O=C1NCCCC12CCCNC2=O`
> 100 µM (inactive)

Repeat with `CC(C)(C)OC(=O)N1CCC(NC(=O)NC2CCN(C(=O)OC(C)(C)C)CC2)CC1`
> 100 µM (inactive)

Repeat with O=C(CC1(O)C(=O)Nc2c(Cl)cc(Cl)cc21)c1ccc(Br)cc1Br (stereo not given)
14.3 µM (inactive)

Repeat with CC(=O)OC1COC(N2C(=O)/C(=N\Nc3ccc([N+](=O)[O-])cc3)c3cc(Br)c([N+](=O)[O-])cc32)C(OC(C)=O)C1OC(C)=O (stereo not given)
> 100 µM (inactive)
